- ASSAY_SYSTEM: human LTBR on cells (human, UniProt P36941 31-435)
- METHOD_SUMMARY: cell-based or functional assay
Each record here notes measured NFκB luc, 15000 ng/ml, with x linker.
METRIC: NFκB luc, 15000 ng/ml, with x linker (RLU)

{"BINDER": "P1AF0064 (antibody, human IgG1, kappa, L234A L235A, V domains shown, human IgG1 PG LALA constant regions; V domains from rat immunization; also called LTBR (0064)) VH: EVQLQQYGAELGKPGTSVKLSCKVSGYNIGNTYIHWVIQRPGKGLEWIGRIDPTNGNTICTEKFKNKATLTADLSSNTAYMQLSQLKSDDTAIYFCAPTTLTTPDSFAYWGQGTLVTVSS VL: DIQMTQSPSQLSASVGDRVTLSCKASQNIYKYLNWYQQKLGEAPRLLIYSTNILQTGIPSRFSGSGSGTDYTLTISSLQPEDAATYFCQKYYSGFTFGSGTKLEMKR", "REPORTED_MEASUREMENT": 57700}
{"BINDER": "P1AE9457 (antibody, human IgG1, kappa, L234A L235A, V domains shown, human IgG1 PG LALA; from transgenic rabbit immunization; also called LTBR (9457)) VH: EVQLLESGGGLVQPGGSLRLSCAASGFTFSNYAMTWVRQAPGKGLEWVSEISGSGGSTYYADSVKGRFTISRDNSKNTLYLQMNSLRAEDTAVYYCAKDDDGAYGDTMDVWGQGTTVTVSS VL: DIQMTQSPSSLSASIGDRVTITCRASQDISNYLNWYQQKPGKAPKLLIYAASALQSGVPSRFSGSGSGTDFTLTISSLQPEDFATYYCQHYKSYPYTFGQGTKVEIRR", "REPORTED_MEASUREMENT": 21500}
